assayed_target: Gcr1 (UniProt P07261)
Sequence: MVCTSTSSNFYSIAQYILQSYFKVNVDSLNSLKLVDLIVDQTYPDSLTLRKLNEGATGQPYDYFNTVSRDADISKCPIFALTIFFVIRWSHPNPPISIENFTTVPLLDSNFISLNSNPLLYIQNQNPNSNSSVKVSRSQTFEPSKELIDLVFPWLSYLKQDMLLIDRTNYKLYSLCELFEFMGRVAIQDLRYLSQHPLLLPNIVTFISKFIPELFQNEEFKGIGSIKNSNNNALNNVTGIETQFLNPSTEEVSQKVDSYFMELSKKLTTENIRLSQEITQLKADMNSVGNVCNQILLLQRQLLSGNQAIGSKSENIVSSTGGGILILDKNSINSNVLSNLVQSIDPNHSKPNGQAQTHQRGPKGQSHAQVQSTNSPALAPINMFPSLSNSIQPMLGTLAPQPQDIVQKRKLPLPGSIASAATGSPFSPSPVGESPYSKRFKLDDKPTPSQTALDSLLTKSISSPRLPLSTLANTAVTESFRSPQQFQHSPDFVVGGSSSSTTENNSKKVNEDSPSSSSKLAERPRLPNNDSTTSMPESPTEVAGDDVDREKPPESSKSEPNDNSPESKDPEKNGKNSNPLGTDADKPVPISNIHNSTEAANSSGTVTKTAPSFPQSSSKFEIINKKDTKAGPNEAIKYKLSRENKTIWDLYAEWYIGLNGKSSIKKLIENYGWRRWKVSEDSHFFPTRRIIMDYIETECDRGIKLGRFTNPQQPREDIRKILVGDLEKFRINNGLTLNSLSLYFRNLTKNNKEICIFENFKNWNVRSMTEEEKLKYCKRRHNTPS
procedure_details: PBM E-score (8-mer binding enrichment) (E-score (-0.5 to 0.5)); higher = stronger / more preferred TF binding
reported_conditions: protein concentration: 100 nM; construct: GST-full length
Over roughly 33,000 sequences, “E-score (-0.5 to 0.5)” has its median near -0.011; the highest 2% begin near 0.28. The list comes from a sample in which the highest values are over-represented; it also holds close analogues and randomly drawn sequences.
property_label: PBM E-score

sequence_data: TAAGCCGA
property_label: PBM E-score
assay_result: -0.177

sequence_data: GCAGCCGC
property_label: PBM E-score
assay_result: 0.282

sequence_data: ACGGTAAG
property_label: PBM E-score
assay_result: -0.0708

sequence_data: GTAAAGAC
property_label: PBM E-score
assay_result: -0.129

sequence_data: CGGGATGC
property_label: PBM E-score
assay_result: 0.332

sequence_data: ACTTCCCC
property_label: PBM E-score
assay_result: 0.0219

sequence_data: TCATCTAA
property_label: PBM E-score
assay_result: -0.0664

sequence_data: CAGGATCC
property_label: PBM E-score
assay_result: 0.345

sequence_data: AGGGATGC
property_label: PBM E-score
assay_result: 0.098

sequence_data: CGATTCCA
property_label: PBM E-score
assay_result: 0.178

sequence_data: AATAGGAT
property_label: PBM E-score
assay_result: 0.187

sequence_data: CAAGCCGA
property_label: PBM E-score
assay_result: -0.038

sequence_data: CTTTTGAA
property_label: PBM E-score
assay_result: 0.1

sequence_data: AATGTGAT
property_label: PBM E-score
assay_result: -0.0732

sequence_data: TCCTCTAA
property_label: PBM E-score
assay_result: 0.282

sequence_data: CCTCAGAC
property_label: PBM E-score
assay_result: -0.19

sequence_data: CAGGATCA
property_label: PBM E-score
assay_result: -0.179

sequence_data: GCTTCCCA
property_label: PBM E-score
assay_result: 0.386

sequence_data: CGGGATGA
property_label: PBM E-score
assay_result: -0.188

sequence_data: AGGTTGCC
property_label: PBM E-score
assay_result: 0.28

sequence_data: AAGGATGA
property_label: PBM E-score
assay_result: -0.116

sequence_data: GCCTACTA
property_label: PBM E-score
assay_result: 0.00583

sequence_data: AAGAAGAA
property_label: PBM E-score
assay_result: 0.303

sequence_data: GCTTCCCC
property_label: PBM E-score
assay_result: 0.341

sequence_data: ACTCTTCC
property_label: PBM E-score
assay_result: -0.211

sequence_data: AATAGGAA
property_label: PBM E-score
assay_result: 0.352

sequence_data: CCAGCCGC
property_label: PBM E-score
assay_result: -0.0253

sequence_data: GATAGGAA
property_label: PBM E-score
assay_result: 0.208

sequence_data: TCTGCCCA
property_label: PBM E-score
assay_result: -0.249

sequence_data: GAAGCCGC
property_label: PBM E-score
assay_result: 0.439

sequence_data: CAGGATGG
property_label: PBM E-score
assay_result: -0.132

sequence_data: GCGAGCGC
property_label: PBM E-score
assay_result: -0.0888

sequence_data: ATATTCCG
property_label: PBM E-score
assay_result: 0.131

sequence_data: TCTAGGAA
property_label: PBM E-score
assay_result: 0.105

sequence_data: AAGGATGT
property_label: PBM E-score
assay_result: 0.0399

sequence_data: TCGTCTAA
property_label: PBM E-score
assay_result: 0.112

sequence_data: GGATTCCC
property_label: PBM E-score
assay_result: 0.418

sequence_data: CGGCTCAA
property_label: PBM E-score
assay_result: 0.00705

sequence_data: CGCCGGGC
property_label: PBM E-score
assay_result: -0.0527

sequence_data: GCGTCTAA
property_label: PBM E-score
assay_result: 0.357

The origin of these recorded values is the supplement of paper PMC3334620.
